B1: ZNF649 (parent)
chain: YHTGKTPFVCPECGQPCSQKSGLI

Variants of: B1
Assay: protein stability index of a GFP-peptide fusion (GPS, HEK-293T) (PSI 1-6); higher = more stable;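 further: lentivirally expressed fusions sorted by FACS into six bins by GFP to DsRed ratio, PSI derived from sequencing read proportions per bin multiplied by bin number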
Conditions: c terminus: a fixed tail appended
# label = satisfied if protein stability index >= 2 else not satisfied

Variant string: S21G
Cat: satisfied

Variant string: I24E
Cat: satisfied

Variant string: E12N
Cat: not satisfied

Variant string: G14S
Cat: not satisfied

Confirm if protein stability index reported for the variant H2D is 2 or above.
satisfied

Do the same for C13N please
not satisfied

Do the same for K5D please
not satisfied

Do the same for Q19D please
satisfied

Do the same for Y1Q please
satisfied

Do the same for T6L please
satisfied

Do the same for H2N please
satisfied

Do the same for C13K please
satisfied

Do the same for F8L please
satisfied

Do the same for P11G please
not satisfied

Do the same for K5S please
satisfied

Do the same for E12Y please
satisfied
